- protocol notes: Antiinflammatory activity in mouse RAW264.7 cells assessed as inhibition of LPS-induced nitric oxide production after 24 hrs by Griess assay
- Format: functional, cell-based
- test conditions: RAW264.7, 24 h
Exam item: assign TRUE to entries whose IC50 is below 50 µM and FALSE to entries at or above 50 µM. Note that a value of exactly 50 µM receives FALSE.

> print(dat)
                                   structure  assigned.category
 1  COc1ccc([C@@H]2COc3cc(O)ccc3C2=O)c(OC)c1              FALSE
 2  COc1ccc([C@@]2(O)COc3cc(O)ccc3C2=O)c(OC)c1              FALSE
 3   C=C[C@H](c1cccc(O)c1)c1cc(OC)c(OC)cc1OC              FALSE
 4  O=C1C[C@@H](c2cc(O)cc(O)c2)Oc2cc(O)cc(O)c21              FALSE
 5      O=C(/C=C/c1ccc(O)c(O)c1)c1ccc(O)cc1O               TRUE
 6       COc1cc2oc(=O)cc(-c3ccc(O)cc3)c2cc1O              FALSE
 7      C=C[C@H](c1ccccc1O)c1cc(O)c(OC)cc1OC              FALSE
 8               COc1cc2c(=O)c3ccccc3oc2cc1O              FALSE
 9  COc1ccc2c(c1)O[C@H]1c3ccc(O)cc3OC[C@@H]21              FALSE
10     COc1cc(O)c2c(c1)O[C@H](c1ccccc1)CC2=O              FALSE
11       C=C[C@H](c1ccccc1)c1cc(OC)c(OC)cc1O              FALSE
12     O=C(c1ccc(O)cc1O)[C@H](O)Cc1ccc(O)cc1              FALSE
13      COc1ccc(-c2coc3cc(O)ccc3c2=O)c(OC)c1              FALSE
14          COc1ccc(-c2coc3cc(O)ccc3c2=O)cc1              FALSE
15  COc1cc2c(cc1O)C(=O)C[C@@H](c1ccc(O)cc1)O2              FALSE
16  COc1ccc([C@@H]2COc3cc(O)ccc3C2=O)c(OC)c1OC              FALSE
17  O=C(c1ccc(O)cc1O)[C@H](O)Cc1ccc(O)c(O)c1              FALSE
18    COc1cc2oc(=O)cc(-c3ccc(O)c(O)c3)c2cc1O               TRUE
19  COc1cc(-c2coc3cc(O)cc(O)c3c2=O)c(OC)cc1O               TRUE
20     C=C[C@H](c1ccccc1O)c1cc(OC)c(OC)cc1OC              FALSE
21  COc1cc(OC)c([C@H]2COc3cc(O)ccc3C2=O)cc1OC              FALSE
22         O=C(/C=C/c1ccc(O)cc1)c1ccc(O)cc1O              FALSE
23                                  N=C(N)NN               TRUE
24  COc1ccc([C@@H]2COc3cc(O)ccc3C2=O)c(OC)c1O              FALSE
25     O=C1C[C@@H](c2ccccc2)Oc2cc(O)cc(O)c21               TRUE
26         O=c1c(-c2ccc(O)cc2)coc2cc(O)ccc12              FALSE
27   O=c1c(-c2ccc(O)c(O)c2)coc2cc(O)cc(O)c12               TRUE
